Tested on: Escherichia coli TOP10
Assay: shrunken log2 fold change of peptide-encoding DNA abundance (4.5 h post-induction vs induction); higher = less antimicrobial activity (less host growth inhibition)
Settings: time post-induction: 4.5 h; library: site-saturation at positions 5, 18, 19, 20
Everything with shrunken log2 fold change lower than -0.05 is rule not met; everything else, including exactly -0.05, is rule met.

Q. In plain terms: is recorded shrunken log2 fold change at least -0.05 for RRIRPRPPRLPRPRPRPNLMPRP ?
A. rule not met

Q. Try RRIRERPPRLPRPRPRPCNKPRP next.
A. rule not met

Q. Lookup RRIRGRPPRLPRPRPRPFNMPRP
A. rule not met

Q. Please give the result for RRIRARPPRLPRPRPRPEHSPRP too.
A. rule met

Q. Would you mind doing RRIRGRPPRLPRPRPRPILEPRP as well?
A. rule met

Q. Moving on to RRIRGRPPRLPRPRPRPSDRPRP
A. rule met

---

Test system: Escherichia coli TOP10
Assay: shrunken log2 fold change of peptide-encoding DNA abundance (4.5 h post-induction vs induction); higher = less antimicrobial activity (less host growth inhibition)
Conditions: time post-induction: 4.5 h; library: site-saturation at positions 5, 18, 19, 20
Give true when the value for shrunken log2 fold change is at least 0.02. Give false when it is less.

RRIRRRPPRLPRPRPRPNDWPRP    true
RRIRTRPPRLPRPRPRPPKFPRP    false
RRIRKRPPRLPRPRPRPKNEPRP    true
RRIRCRPPRLPRPRPRPAIFPRP    false
RRIRKRPPRLPRPRPRPHVRPRP    false
RRIRERPPRLPRPRPRPKRGPRP    true

Q. Does the reported shrunken log2 fold change for RRIRTRPPRLPRPRPRPTKGPRP fall at or above the 0.02 mark?
A. false

Q. Check RRIRERPPRLPRPRPRPSNFPRP too.
A. false

---

shrunken log2 fold change: recorded values
Tested on: Escherichia coli TOP10
Assay: shrunken log2 fold change of peptide-encoding DNA abundance (4.5 h post-induction vs induction); higher = less antimicrobial activity (less host growth inhibition)
Details: time post-induction: 4.5 h; library: site-saturation at positions 5, 18, 19, 20
# respond with the number and nothing more

RRIRTRPPRLPRPRPRPQSGPRP    0.00577

Q. I'm curious: which shrunken log2 fold change was measured for RRIRIRPPRLPRPRPRPVTHPRP tested on Escherichia coli TOP10?
A. -0.256

Q. Also RRIRLRPPRLPRPRPRPWLEPRP , if possible.
A. -0.212

Q. // query: RRIRNRPPRLPRPRPRPMIQPRP
A. -0.715

Q. Next: RRIRERPPRLPRPRPRPQAAPRP
A. -0.194

---

Below, each entry is listed with its recorded shrunken log2 fold change.
Test system: Escherichia coli TOP10
Experiment: shrunken log2 fold change of peptide-encoding DNA abundance (4.5 h post-induction vs induction); higher = less antimicrobial activity (less host growth inhibition)
Conditions: time post-induction: 4.5 h; library: site-saturation at positions 5, 18, 19, 20
Could you keep your reply to the number by itself?

Consider the following illustrative entries.
RRIRIRPPRLPRPRPRPVPQPRP    0.224
RRIRGRPPRLPRPRPRPVWAPRP    0.591
RRIRERPPRLPRPRPRPNYNPRP    -1.1

Q. # input sequence: RRIRHRPPRLPRPRPRPVSSPRP ; wanted: its shrunken log2 fold change
A. -0.0295

Q. Another: RRIRTRPPRLPRPRPRPRLIPRP
A. -0.113

---

In this section, each of the sequences is paired with its reported shrunken log2 fold change.
Tested on: Escherichia coli TOP10
Experiment: shrunken log2 fold change of peptide-encoding DNA abundance (4.5 h post-induction vs induction); higher = less antimicrobial activity (less host growth inhibition)
Conditions: time post-induction: 4.5 h; library: site-saturation at positions 5, 18, 19, 20
In your answer, state the number alone without any accompanying words.

Example sequences with recorded shrunken log2 fold change:
RRIRERPPRLPRPRPRPMCQPRP    -0.051
RRIRTRPPRLPRPRPRPNFRPRP    -0.152
RRIRGRPPRLPRPRPRPICWPRP    0.714
RRIRQRPPRLPRPRPRPDDWPRP    0.0952
RRIRARPPRLPRPRPRPTSAPRP    0.684

Q. What value of measured shrunken log2 fold change is listed for RRIRWRPPRLPRPRPRPQGGPRP ?
A. -0.0626

Q. What do you have for RRIRTRPPRLPRPRPRPKSRPRP ?
A. -0.0444

Q. Let us now turn to RRIRIRPPRLPRPRPRPKLEPRP
A. -0.136

---

Test system: Escherichia coli TOP10
Assay: shrunken log2 fold change of peptide-encoding DNA abundance (4.5 h post-induction vs induction); higher = less antimicrobial activity (less host growth inhibition)
Conditions: time post-induction: 4.5 h; library: site-saturation at positions 5, 18, 19, 20
Below is a list of entries, each paired with its recorded shrunken log2 fold change value.
Please reply with the number alone, leaving off any unit.

Below, each entry is followed by its recorded shrunken log2 fold change result.
RRIRDRPPRLPRPRPRPIAWPRP    0.0633
RRIRMRPPRLPRPRPRPMSKPRP    0.0165
RRIRLRPPRLPRPRPRPMERPRP    -0.00192

Q. Which shrunken log2 fold change value is on record for RRIRPRPPRLPRPRPRPMPAPRP ?
A. 0.0935

Q. How about RRIRERPPRLPRPRPRPGMDPRP ?
A. -0.696

Q. And the next one, RRIRIRPPRLPRPRPRPSLIPRP ?
A. -0.604

Q. Try RRIRNRPPRLPRPRPRPMCEPRP next.
A. -0.0162

Q. Try RRIRKRPPRLPRPRPRPLVQPRP next.
A. 0.459

Q. Can you handle RRIRRRPPRLPRPRPRPWKCPRP next?
A. -0.0487

Q. Please do the same for RRIRLRPPRLPRPRPRPHTTPRP as well.
A. -0.368

Q. And RRIRNRPPRLPRPRPRPMIMPRP ?
A. -1.96

Q. Entry RRIRCRPPRLPRPRPRPMCMPRP please
A. -0.232

Q. Record: RRIRTRPPRLPRPRPRPCTGPRP
A. -0.0103

Q. Now the sequence RRIRFRPPRLPRPRPRPDLPPRP
A. -0.0804

Q. Follow-up entry: RRIRVRPPRLPRPRPRPDHDPRP
A. -0.485

Q. Record: RRIRKRPPRLPRPRPRPRANPRP
A. 0.588

Q. // next record RRIRDRPPRLPRPRPRPQICPRP
A. -0.0334

Q. Field entry: RRIRDRPPRLPRPRPRPAWKPRP
A. 0.0693

---

Test system: Escherichia coli TOP10
Experiment: shrunken log2 fold change of peptide-encoding DNA abundance (4.5 h post-induction vs induction); higher = less antimicrobial activity (less host growth inhibition)
Details: time post-induction: 4.5 h; library: site-saturation at positions 5, 18, 19, 20
Outcome Measure: shrunken log2 fold change
Enter a number only.

RRIRQRPPRLPRPRPRPQAHPRP    -0.23

Q. # input sequence: RRIRTRPPRLPRPRPRPCASPRP ; wanted: its shrunken log2 fold change
A. 0.184

Q. One more sequence: RRIRQRPPRLPRPRPRPMATPRP
A. 0.0329

Q. // query: RRIRVRPPRLPRPRPRPGWCPRP
A. 0.146

Q. Entry RRIRTRPPRLPRPRPRPWALPRP please
A. -0.23

Q. One more sequence: RRIRPRPPRLPRPRPRPFDCPRP
A. -0.52

Q. Next record, please: RRIRARPPRLPRPRPRPQAIPRP
A. 0.281

Q. Please do the same for RRIRRRPPRLPRPRPRPELCPRP as well.
A. 0.101

Q. Item: RRIRGRPPRLPRPRPRPVLIPRP
A. 0.223

---

Tested on: Escherichia coli TOP10;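 further: peptides expressed intracellularly from a pBAD plasmid library in pooled LB shake-flask culture, induced with 0.3% L-arabinose, DNA abundance read by NGS, three biological replicates, DESeq2 with apeglm shrinkage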
Test: shrunken log2 fold change of peptide-encoding DNA abundance (4.5 h post-induction vs induction); higher = less antimicrobial activity (less host growth inhibition)
Conditions: time post-induction: 4.5 h; library: site-saturation at positions 5, 18, 19, 20
Decide by shrunken log2 fold change: equal to or exceeding 0.08 means y, less means n.

These recorded examples may help you get a feel for the data.
RRIRRRPPRLPRPRPRPRNVPRP    y
RRIRFRPPRLPRPRPRPHEQPRP    y
RRIRTRPPRLPRPRPRPTGEPRP    y
RRIRQRPPRLPRPRPRPHVWPRP    n
RRIRCRPPRLPRPRPRPQNCPRP    y

Q. Decide: shrunken log2 fold change of RRIRPRPPRLPRPRPRPPFNPRP >= 0.08?
A. n

Q. Proceed to RRIRHRPPRLPRPRPRPPQYPRP
A. n

Q. Try this sequence too: RRIRLRPPRLPRPRPRPVMRPRP
A. n

Q. Same question for RRIRMRPPRLPRPRPRPCQYPRP please.
A. n

Q. Also check RRIRSRPPRLPRPRPRPCWDPRP
A. n

Q. Next entry: RRIRPRPPRLPRPRPRPDAHPRP
A. y

Q. Next sequence up: RRIRKRPPRLPRPRPRPLDKPRP
A. n

Q. And for RRIRCRPPRLPRPRPRPYRCPRP ?
A. n

Q. Would you kindly repeat that for RRIRKRPPRLPRPRPRPKFCPRP ?
A. n

Q. Another sequence: RRIRDRPPRLPRPRPRPYCDPRP
A. n

Q. RRIRVRPPRLPRPRPRPDYYPRP ?
A. n
